Source of measurements: paper PMC10916402

Endpoint: pIC50. System: OXA-51 (Acinetobacter baumannii). Items follow.
Sequence (Q5QT35 entry or part of it): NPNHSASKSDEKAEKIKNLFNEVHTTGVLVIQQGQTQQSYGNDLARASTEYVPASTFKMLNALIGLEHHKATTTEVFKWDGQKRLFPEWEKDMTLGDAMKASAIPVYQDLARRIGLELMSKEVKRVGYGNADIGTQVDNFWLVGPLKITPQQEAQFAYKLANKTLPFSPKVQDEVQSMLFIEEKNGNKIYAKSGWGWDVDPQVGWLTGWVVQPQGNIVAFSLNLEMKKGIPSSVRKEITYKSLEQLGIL
pIC50: −log10 of the molar value.

Query: Field request: pIC50 | item: NCCN[C@H]1CC[C@H](CC(=O)N[C@H]2Cc3cccc(C(=O)O)c3OB2O)CC1 [Tan, taniborbactam]
Result: < 5.00

Query: Repeat for the following compound: CC1=C[C@@H]2CN(C(=O)N2OS(=O)(=O)O)[C@@H]1C(N)=O [Dur, durlobactam]
Result: 5.37

Query: Repeat for the following compound: O=C1N2C[C@@H](CC[C@H]2F)N1OS(=O)(=O)O [ANT3310]
Result: 6.27

Query: Repeat for the following compound: O=C(NNC(=O)[C@@H]1CC[C@@H]2CN1C(=O)N2OS(=O)(=O)O)[C@@H]1CCCNC1 [Zid, zidebactam]
Result: < 5.00

Query: Repeat for the following compound: NC(=O)[C@@H]1CC[C@@H]2CN1C(=O)N2OS(=O)(=O)O [Avi, avibactam]
Result: < 5.00

Query: Repeat for the following compound: O=C(NC1CCNCC1)[C@@H]1CC[C@@H]2CN1C(=O)N2OS(=O)(=O)O (relative stereo) [Rel, relebactam]
Result: < 5.00

Query: Repeat for the following compound: NCCONC(=O)[C@@H]1CC[C@@H]2CN1C(=O)N2OS(=O)(=O)O [Nac, nacubactam]
Result: < 5.00
